- Test Name: NCI Yeast Anticancer Drug Screen. Data for the mec2-1 strain (AID 157)
- Condition Info: S. cerevisiae mec2-1 strain, hits give high values; at 50.0 µM unless noted
The panel holds about 79,000 compounds, 15% with a hit somewhere; the sample as a whole holds those more often.
Classes based on growth inhibition: Low: < -20%; Mid: ≥ -20% and < 20%; High: ≥ 20%

Consider the worked cases shown below.
>>> class_label("CSC(=Nc1ccccc1Cl)NC(=O)c1ccc(Br)cc1")
"High"
>>> class_label("O=[N+]([O-])c1ccc(/C(=C\\c2ccc(-c3ccccc3)o2)S(=O)(=O)c2ccccc2)o1")
"Mid"
>>> class_label("CC(C)(C)NCCS")
"Low"
>>> class_label("CCOC(=O)C1SC(=Nc2ccccc2)N=C1C (configuration not stated)")
"Mid"
>>> class_label("CN(Cc1cc(Br)cc(Br)c1O)Cc1c(O)ccc2ccccc12")
"High"

Exercise: Into which category would you place `O=C(Cc1nc2ccccc2o1)C(=O)Nc1ccccc1C(F)(F)F` ?
Key: Mid

Exercise: Into which category would you place `O=C(CCl)Nc1cc2ccccc2oc1=O` ?
Key: High

Exercise: Into which category would you place `CCC(=O)Oc1ccc(C(=O)c2ccc(OC(=O)CC)cc2)cc1` ?
Key: Low

Exercise: Into which category would you place `COC(=O)C(C)(C)C(C)=O` ?
Key: Low

Exercise: Into which category would you place `COC(=O)c1cc2c(cc1/C=C/C=O)OCO2` ?
Key: Mid

Exercise: Into which category would you place CCCCN1CC(=O)N2CCCC(c3ccccc3)N2C(=O)C1 (configuration not stated) ?
Key: Mid
